As shown below, each of these molecules has a reported MIC value.
test system: M. canis TIMM0760
metricName: MIC (µg/mL)

chemSmiles | unitDescriptor | valueObserved
C=C(C)c1cccc(CN(CC)C/C=C/C#CC(C)(C)C)c1.Cl | µg/mL | 0.2
C=C(C)c1ccccc1CN(C)C/C=C/C#CC(C)(C)C.Cl | µg/mL | 6.25
C=C(C)c1cc(CN(C)Cc2ccc(C(C)(C)C)cc2)ccc1C.Cl | µg/mL | 1.56
C=C(C)c1cc(C)cc(CN(C)Cc2ccc(C(C)(C)C)cc2)c1.Cl | µg/mL | 0.05
CC(C)=Cc1cccc(CN(C)C/C=C/C#CC(C)(C)C)c1.Cl | µg/mL | 0.2
C=C(C)c1cccc(CN(C)CC=Cc2ccccc2)c1.Cl | µg/mL | 1.56
C=C(C)c1cccc(CN(C)C/C=C/C#CC(C)(C)C)c1.Cl | µg/mL | 0.1
C=C(C)c1ccccc1CN(C)Cc1ccc(C(C)(C)C)cc1.Cl | µg/mL | 1.56
C=C(C)c1cc(CN(C)C/C=C/C#CC(C)(C)C)ccc1C.Cl | µg/mL | 1.56

* * *

// MIC collected for M. canis TIMM0760
metricName: MIC (µg/mL)

chemSmiles | testedOn | unitDescriptor | valueObserved
C=C(C)c1cccc(CN(CC)Cc2ccc(C(C)(C)C)cc2)c1.Cl | M. canis TIMM0760 | µg/mL | 0.2
C=Cc1cccc(CN(C)C/C=C/C#CC(C)(C)C)c1.Cl | M. canis TIMM0760 | µg/mL | 0.2
C=C(C)c1cc(F)cc(CN(C)C/C=C/C#CC(C)(C)C)c1.Cl | M. canis TIMM0760 | µg/mL | 0.2
C=C(C)c1cc(C)cc(CN(C)C/C=C/C#CC(C)(C)C)c1.Cl | M. canis TIMM0760 | µg/mL | 0.1
C=C(CC)c1cccc(CN(C)Cc2ccc(C(C)(C)C)cc2)c1.Cl | M. canis TIMM0760 | µg/mL | 0.2
C=C(CC)c1cccc(CN(C)C/C=C/C#CC(C)(C)C)c1.Cl | M. canis TIMM0760 | µg/mL | 0.39
C=Cc1cccc(CN(C)Cc2ccc(C(C)(C)C)cc2)c1.Cl | M. canis TIMM0760 | µg/mL | 0.2
C=C(C)c1cccc(CN(C)Cc2ccc(C(C)(C)C)cc2)c1.Cl | M. canis TIMM0760 | µg/mL | 0.2
C=C(C)c1cc(F)cc(CN(C)Cc2ccc(C(C)(C)C)cc2)c1.Cl | M. canis TIMM0760 | µg/mL | 0.1

* * *

This section lists MIC readings for T. mentagrophytes IF05811.

chemSmiles | unitDescriptor | MIC
C=C(C)c1ccccc1CN(C)C/C=C/C#CC(C)(C)C.Cl | µg/mL | 6.25
C=C(C)c1cccc(CN(CC)Cc2ccc(C(C)(C)C)cc2)c1.Cl | µg/mL | 0.78
C=C(C)c1cccc(CN(C)CC=Cc2ccccc2)c1.Cl | µg/mL | 6.25
C=C(C)c1cc(F)cc(CN(C)Cc2ccc(C(C)(C)C)cc2)c1.Cl | µg/mL | 0.1
C=Cc1cccc(CN(C)Cc2ccc(C(C)(C)C)cc2)c1.Cl | µg/mL | 0.39

* * *

test system: T. mentagrophytes TIMM1177
metricName: MIC (µg/mL)

chemSmiles | unitDescriptor | valueObserved
C=C(CC)c1cccc(CN(C)C/C=C/C#CC(C)(C)C)c1.Cl | µg/mL | 0.78
C=Cc1cccc(CN(C)C/C=C/C#CC(C)(C)C)c1.Cl | µg/mL | 0.39
C=C(C)c1cc(CN(C)Cc2ccc(C(C)(C)C)cc2)ccc1C.Cl | µg/mL | 12.5
C=C(C)c1cc(CN(C)C/C=C/C#CC(C)(C)C)ccc1C.Cl | µg/mL | 12.5
C=C(C)c1cccc(CN(C)C/C=C/C#CC(C)(C)C)c1.Cl | µg/mL | 0.1

* * *

system: T. mentagrophytes TIMM1177
Lab note - cut at 0.8 µg/mL for MIC: label 1 if strictly below, label 0 if not.

compound | testedOn | labelValue
C=C(C)c1cccc(CN(CC)Cc2ccc(C(C)(C)C)cc2)c1.Cl [Compound 114] | T. mentagrophytes TIMM1177 | label 1
C=C(C)c1ccccc1CN(C)C/C=C/C#CC(C)(C)C.Cl [Compound 39] | T. mentagrophytes TIMM1177 | label 0
C=C(C)c1cc(C)cc(CN(C)C/C=C/C#CC(C)(C)C)c1.Cl [Compound 19] | T. mentagrophytes TIMM1177 | label 1
C=C(C)c1cccc(CN(CC)C/C=C/C#CC(C)(C)C)c1.Cl [Compound 45] | T. mentagrophytes TIMM1177 | label 1
C=C(C)c1cccc(CN(C)CC=Cc2ccccc2)c1.Cl [Compound 48] | T. mentagrophytes TIMM1177 | label 0
C=C(C)c1ccccc1CN(C)Cc1ccc(C(C)(C)C)cc1.Cl [Compound 108] | T. mentagrophytes TIMM1177 | label 0
C=C(C)c1cccc(CN(C)C/C=C/C#CC(C)(C)C)c1C.Cl [Compound 52] | T. mentagrophytes TIMM1177 | label 0
C=C(C)c1cc(C)cc(CN(C)Cc2ccc(C(C)(C)C)cc2)c1.Cl [Compound 88] | T. mentagrophytes TIMM1177 | label 1
C=C(C)c1cccc(CN(C)Cc2ccc(C(C)(C)C)cc2)c1.Cl [Compound 77] | T. mentagrophytes TIMM1177 | label 1
C=C(C)c1cc(F)cc(CN(C)C/C=C/C#CC(C)(C)C)c1.Cl [Compound 64] | T. mentagrophytes TIMM1177 | label 1
C=C(C)c1cc(F)cc(CN(C)Cc2ccc(C(C)(C)C)cc2)c1.Cl [Compound 101] | T. mentagrophytes TIMM1177 | label 1
C=Cc1cccc(CN(C)Cc2ccc(C(C)(C)C)cc2)c1.Cl [Compound 81] | T. mentagrophytes TIMM1177 | label 1

* * *

MIC listing for selected compounds.
test system: M. gypseum IF08231; assay: Measurement of antifungal activity (minimum inhibitory concentration), agar dilution; assay type: cell-based; conditions: Nannizzia gypsea, 168 h; H. gypseum IF08231 (Table 1); Sabouraud's agar, one week at 27° C.; read-out: MIC value (minimum compound concentration that definitely inhibited any visible growth)

chemSmiles | testedOn | MIC
C=C(C)c1cccc(CN(C)CC=Cc2ccccc2)c1.Cl | M. gypseum IF08231 | 6.25 µg/mL
CC(C)=Cc1cccc(CN(C)C/C=C/C#CC(C)(C)C)c1.Cl | M. gypseum IF08231 | 0.78 µg/mL
C=C(C)c1cccc(CN(C)C/C=C/C#CC(C)(C)C)c1C.Cl | M. gypseum IF08231 | 3.12 µg/mL

* * *

Target or system T. mentagrophytes IF05811; recorded quantity MIC.

compound | MIC, µg/mL
C=C(C)c1ccccc1CN(C)Cc1ccc(C(C)(C)C)cc1.Cl [Compound 108] | 1.56
C=C(C)c1cc(F)cc(CN(C)C/C=C/C#CC(C)(C)C)c1.Cl [Compound 64] | 0.1
CC(C)=Cc1cccc(CN(C)C/C=C/C#CC(C)(C)C)c1.Cl [Compound 12] | 0.39
C=C(C)c1cccc(CN(C)C/C=C/C#CC(C)(C)C)c1C.Cl [Compound 52] | 12.5
C=C(C)c1cc(CN(C)Cc2ccc(C(C)(C)C)cc2)ccc1C.Cl [Compound 126] | 12.5

Source of measurements: patent US6586633B1
